B1: Intersectin-2, residues 1129 to 1183; numbered along this chain, Q9NZM3 (parent)
chain: VCQVIAMYDYAANNEDELSFSKGQLINVMNKDDPDWWQGEINGVTGLFPSNYVKM

Variants of: B1
assay.protocol: abundance fitness (aPCA) (normalised: wild type 0, dead -1); higher = more abundant; growth selection in yeast, the domain comes from the species named
test.conditions: Homo sapiens
Decision: abundance fitness >= -0.05 yields met, all other cases yield not met.

>  <polymer.sequence>
VCQVIAMYDYAANNEDELSFSKGQDINVMNKDDPDWWQGEINGVTGLFPSNYVKM [L25D]

>  <assigned.category>
met

$$$$
>  <polymer.sequence>
VCQVIAMYDYAANNEDELSFSKGKLINVMNKDDPDWWQGEINGVTGLFPSNYVKM [Q24K]

>  <assigned.category>
not met

$$$$
>  <polymer.sequence>
VCQVIAMYDYAANNEDELSFSKGQLINVMNKDDPDWWQGEINGVTILFPSNYVKM [G46I]

>  <assigned.category>
not met

$$$$
>  <polymer.sequence>
VCWVIAMYDYAANNEDELSFSKGQLINVMNKDDPDWWQGEINGVTGLFPSNYVKM [Q3W]

>  <assigned.category>
not met

$$$$
>  <polymer.sequence>
VCQVIAMYDYAANNEDELSFSKGQLINVMNKDDPDWWQGEIMGVTGLFPSNYVKM [N42M]

>  <assigned.category>
met

$$$$
>  <polymer.sequence>
VCQVIAMYDYAANNEDELSFSAGQLINVMNKDDPDWWQGEINGVTGLFPSNYVKM [K22A]

>  <assigned.category>
met

$$$$
>  <polymer.sequence>
VCQVIAMYDYAANNEDELSFSKGQLINVMNKDDPDWWQGEHNGVTGLFPSNYVKM [I41H]

>  <assigned.category>
met

$$$$
>  <polymer.sequence>
VCQVIAMYDYAANNEDELSFSKGQLILVMNKDDPDWWQGEINGVTGLFPSNYVKM [N27L]

>  <assigned.category>
not met

$$$$

Read the next record carefully.
Is the recorded value of abundance fitness equal to or greater than -0.05 for this variant? VCQVIAMPDYAANNEDELSFSKGQLINVMNKDDPDWWQGEINGVTGLFPSNYVKM [Y8P] not met

Sourced from the Human Domainome abundance scans (Beltran et al. 2025)
